molecular target: UniProt:P08183; test: Inhibition of human MDR1 expressed in mouse NIH/3T3 cells assessed as daunomycin retention at 10 uM incubated for 30 mins by flow cytometry; format: cell-based; set-up: scale not given: the % may be the effect or the level left; conditions: nih3t3, 0.5 h
Sequence (P08183 whole entry): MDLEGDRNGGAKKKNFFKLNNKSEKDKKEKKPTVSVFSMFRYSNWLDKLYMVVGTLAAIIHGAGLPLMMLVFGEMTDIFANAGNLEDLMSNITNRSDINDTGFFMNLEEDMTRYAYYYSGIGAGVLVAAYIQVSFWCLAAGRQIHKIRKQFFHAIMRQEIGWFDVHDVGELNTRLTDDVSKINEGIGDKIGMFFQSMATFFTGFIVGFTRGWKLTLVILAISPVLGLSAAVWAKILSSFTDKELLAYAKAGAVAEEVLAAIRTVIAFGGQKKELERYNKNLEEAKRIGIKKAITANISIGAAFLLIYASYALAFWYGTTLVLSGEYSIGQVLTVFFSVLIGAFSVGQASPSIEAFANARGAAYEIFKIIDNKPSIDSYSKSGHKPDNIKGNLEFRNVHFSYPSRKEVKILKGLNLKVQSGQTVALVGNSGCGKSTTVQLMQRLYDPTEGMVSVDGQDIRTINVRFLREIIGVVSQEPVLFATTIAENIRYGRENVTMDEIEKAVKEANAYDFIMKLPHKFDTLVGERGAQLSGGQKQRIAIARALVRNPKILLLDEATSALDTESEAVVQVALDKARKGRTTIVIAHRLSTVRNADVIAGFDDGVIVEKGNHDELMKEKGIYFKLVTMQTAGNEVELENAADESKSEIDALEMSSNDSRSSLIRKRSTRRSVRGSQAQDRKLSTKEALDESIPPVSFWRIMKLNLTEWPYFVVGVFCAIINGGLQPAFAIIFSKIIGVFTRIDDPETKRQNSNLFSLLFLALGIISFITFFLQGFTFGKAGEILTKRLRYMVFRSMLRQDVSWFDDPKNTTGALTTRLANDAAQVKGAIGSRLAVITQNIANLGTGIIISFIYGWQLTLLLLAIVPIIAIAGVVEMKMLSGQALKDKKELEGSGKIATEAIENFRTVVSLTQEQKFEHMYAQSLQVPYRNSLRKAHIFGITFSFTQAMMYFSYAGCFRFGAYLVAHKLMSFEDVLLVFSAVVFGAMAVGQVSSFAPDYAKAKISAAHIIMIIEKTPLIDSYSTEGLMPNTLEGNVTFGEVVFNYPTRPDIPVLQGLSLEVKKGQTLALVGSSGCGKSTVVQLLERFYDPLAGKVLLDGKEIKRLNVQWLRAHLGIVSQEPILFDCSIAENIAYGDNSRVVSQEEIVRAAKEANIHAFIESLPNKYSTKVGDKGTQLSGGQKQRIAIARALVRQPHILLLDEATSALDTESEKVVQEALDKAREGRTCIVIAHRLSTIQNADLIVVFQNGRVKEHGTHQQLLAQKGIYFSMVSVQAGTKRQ
MEASURED METRIC: Activity (%)

1) CC(=O)O[C@H]1CC[C@](C)(O)[C@]23OC(C)(C)[C@H]([C@H](OC(=O)/C=C/c4ccccc4)[C@H](OC(=O)c4ccccc4)[C@]12C)[C@H]3OS(C)(=O)=O | 83
2) C=C1CC[C@H](OC(C)=O)[C@@]2(C)[C@@H](OC(=O)c3ccccc3)[C@@H](OC(=O)/C=C/c3ccccc3)[C@@H]3[C@@H](OC(=O)CCl)[C@]12OC3(C)C | 66
3) C=C1CC[C@H](OC(C)=O)[C@@]2(C)[C@@H](OC(=O)c3ccccc3)[C@@H](OC(=O)/C=C/c3ccccc3)[C@@H]3[C@@H](OS(C)(=O)=O)[C@]12OC3(C)C | 66
4) CC(=O)O[C@H]1CC[C@](C)(O)[C@]23OC(C)(C)[C@H]([C@H](OC(=O)/C=C/c4ccccc4)[C@H](OC(=O)c4ccccc4)[C@]12C)[C@H]3OC(=O)CCl | 83
5) CC(=O)O[C@H]1CC[C@](C)(OC(C)=O)[C@]23OC(C)(C)[C@H]([C@H](OC(=O)/C=C/c4ccccc4)[C@H](OC(=O)c4ccccc4)[C@]12C)[C@H]3OC(C)=O | 85
6) CC(=O)O[C@H]1CC[C@](C)(O)[C@]23OC(C)(C)[C@H]([C@H](OC(=O)/C=C/c4ccccc4)[C@H](OC(=O)c4ccccc4)[C@]12C)[C@H]3OC(C)=O | 83
7) C=C1CC[C@H](OC(C)=O)[C@@]2(C)[C@@H](OC(=O)c3ccccc3)[C@@H](OC(=O)/C=C/c3ccccc3)[C@@H]3[C@@H](O)[C@]12OC3(C)C | 66
8) CC(=O)O[C@H]1CC[C@](C)(O)[C@]23OC(C)(C)[C@H]([C@H](OC(=O)/C=C/c4ccccc4)[C@H](OC(=O)c4ccccc4)[C@]12C)[C@H]3O | 83
